- system_tested: UniProtKB P49841
- Sequence (P49841 whole entry): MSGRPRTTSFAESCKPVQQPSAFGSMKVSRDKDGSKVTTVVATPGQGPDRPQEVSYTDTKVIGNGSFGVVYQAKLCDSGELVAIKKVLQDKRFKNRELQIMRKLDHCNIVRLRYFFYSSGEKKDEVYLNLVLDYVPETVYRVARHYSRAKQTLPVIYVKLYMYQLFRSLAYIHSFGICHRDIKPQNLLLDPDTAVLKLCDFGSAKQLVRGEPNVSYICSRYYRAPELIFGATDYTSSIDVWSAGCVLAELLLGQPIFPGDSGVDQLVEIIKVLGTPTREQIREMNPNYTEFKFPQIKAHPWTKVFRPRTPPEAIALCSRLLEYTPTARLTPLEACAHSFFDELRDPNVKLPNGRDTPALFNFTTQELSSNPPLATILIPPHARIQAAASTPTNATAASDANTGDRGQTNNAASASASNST
quantity_measured: IC50 (µM)
Your answer should be a plain number; it is taken to be in µM.

Returns the measured IC50 for the input compound. Input: `O=C(O)Cc1c2ccccc2n2c1[nH]c(=O)c1ccccc12`
14

====

- system_tested: Dual specificity tyrosine-phosphorylation-regulated kinase 1A (Homo sapiens)
quantity_measured: pIC50
As a rule, pIC50 stands for the negative log10 of the concentration, concentration in M.

State its pIC50 on Dual specificity tyrosine-phosphorylation-regulated kinase 1A (Homo sapiens): `O=C(O)Cc1c2ccccc2n2c1[nH]c(=O)c1ccccc12`
5.10

====

- system_tested: Phosphatidylinositol 4,5-bisphosphate 3-kinase catalytic subunit gamma isoform (Homo sapiens)
- Sequence (P48736 whole entry, canonical isoform): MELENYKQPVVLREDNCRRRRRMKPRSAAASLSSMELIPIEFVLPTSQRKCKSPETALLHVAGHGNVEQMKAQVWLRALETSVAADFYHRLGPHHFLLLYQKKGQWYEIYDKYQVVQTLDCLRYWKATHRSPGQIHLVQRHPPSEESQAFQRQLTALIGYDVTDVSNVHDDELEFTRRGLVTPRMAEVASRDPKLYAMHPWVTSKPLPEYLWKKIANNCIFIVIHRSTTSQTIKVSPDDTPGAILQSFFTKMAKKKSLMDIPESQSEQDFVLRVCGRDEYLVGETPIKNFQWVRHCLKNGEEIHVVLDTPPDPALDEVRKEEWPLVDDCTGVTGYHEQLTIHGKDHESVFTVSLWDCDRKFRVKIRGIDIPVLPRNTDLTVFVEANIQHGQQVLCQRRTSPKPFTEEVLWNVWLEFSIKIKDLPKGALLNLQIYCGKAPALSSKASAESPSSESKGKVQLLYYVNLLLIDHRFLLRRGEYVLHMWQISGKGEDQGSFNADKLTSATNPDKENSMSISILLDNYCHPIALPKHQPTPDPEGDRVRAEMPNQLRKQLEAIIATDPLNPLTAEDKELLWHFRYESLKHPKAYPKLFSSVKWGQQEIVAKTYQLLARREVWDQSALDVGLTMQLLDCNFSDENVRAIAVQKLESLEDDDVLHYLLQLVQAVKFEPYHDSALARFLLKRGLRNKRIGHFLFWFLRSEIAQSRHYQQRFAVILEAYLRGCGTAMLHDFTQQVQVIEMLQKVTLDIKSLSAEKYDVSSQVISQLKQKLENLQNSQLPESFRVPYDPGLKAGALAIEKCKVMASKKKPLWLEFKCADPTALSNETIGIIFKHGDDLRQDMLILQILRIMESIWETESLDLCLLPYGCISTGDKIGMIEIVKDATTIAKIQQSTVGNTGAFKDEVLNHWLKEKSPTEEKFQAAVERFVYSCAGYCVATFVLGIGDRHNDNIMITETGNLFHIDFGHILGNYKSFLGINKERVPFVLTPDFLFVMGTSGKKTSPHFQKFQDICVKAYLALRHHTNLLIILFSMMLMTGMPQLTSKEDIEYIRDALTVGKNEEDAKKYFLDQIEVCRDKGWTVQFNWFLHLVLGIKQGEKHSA
- assay_overview: Inhibition of PI3K gamma
pIC50: −log10 of the molar value.
quantity_measured: pIC50

Which measured pIC50 value corresponds to `O=C(O)Cc1c2ccccc2n2c1[nH]c(=O)c1ccccc12` ?
< 3.70
